Entry source: ChEMBL document CHEMBL4665803

Below, each of the molecules is paired with its reported IC50 value.
- Target: Transcriptional enhancer factor TEF-3 (Homo sapiens, UniProt Q15561)
- Sequence (Q15561 whole entry, the tested form may be a part): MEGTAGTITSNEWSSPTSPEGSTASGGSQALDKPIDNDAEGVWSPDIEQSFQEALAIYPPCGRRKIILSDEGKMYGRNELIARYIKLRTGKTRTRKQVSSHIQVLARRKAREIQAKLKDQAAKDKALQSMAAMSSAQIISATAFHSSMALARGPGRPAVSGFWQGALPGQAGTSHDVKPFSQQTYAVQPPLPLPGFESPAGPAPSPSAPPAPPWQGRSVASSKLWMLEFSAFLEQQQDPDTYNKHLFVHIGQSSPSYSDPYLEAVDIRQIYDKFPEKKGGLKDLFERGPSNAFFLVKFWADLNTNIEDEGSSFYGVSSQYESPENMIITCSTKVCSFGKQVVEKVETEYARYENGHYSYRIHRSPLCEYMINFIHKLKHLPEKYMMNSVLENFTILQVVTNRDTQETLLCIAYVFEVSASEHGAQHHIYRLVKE
- Procedure Text: Inhibition of CPM binding to N-terminal His6-tagged human TEAD4 (217 to 434 residues) expressed in Escherichia coli BL21-CodonPlus (DE3)-RIPL cells preincubated for 10 mins followed by CPM addition and measured after 1 hr by fluorescence assay
- Condition Details: read-out: IC50

O=c1cc(CO)oc(CN2CCN(c3ccccn3)CC2)c1O    > 100 µM

What is its IC50 for Transcriptional enhancer factor TEF-3 (Homo sapiens, UniProt Q15561)? Entry: CCOC(=O)C1CCCN(Cc2oc(CO)cc(=O)c2O)C1 (stereo not drawn)
> 100 µM

Then this molecule: `CSCC[C@H](NCc1oc(CO)cc(=O)c1O)C(=O)O`
> 100 µM

----------
- Target: Transcriptional enhancer factor TEF-3 (Homo sapiens)
- Procedure Text: Inhibition of FITC-labeled palmitate tracer binding to N-terminal His6-tagged human TEAD4 (217 to 434 residues) expressed in Escherichia coli BL21-CodonPlus (DE3)-RIPL cells preincubated for 10 mins followed by FITC-labeled palmitate tracer addition and measured after 1 hr by fluorescence assay
Readout Type: IC50 (µM)
Report as a plain number; the unit µM is understood.

Some compounds with recorded IC50:
O=c1cc(CO)oc(C(Nc2ncccn2)c2ccccc2)c1O (centres undefined)    13.4
O=c1cc(CO)oc(C(Nc2nccs2)c2ccccc2)c1O (centres undefined)    5.6
O=c1cc(CO)oc(C(Nc2nc3ccccc3[nH]2)c2ccccc2)c1O (centres undefined)    6.4

Checklist item: IC50 tested on Transcriptional enhancer factor TEF-3 (Homo sapiens), entry O=c1cc(CO)oc(C(Nc2ccccc2)c2ccc(F)cc2)c1O (centres undefined) , value?
0.3

----------
- Target: Transcriptional enhancer factor TEF-3 (Homo sapiens, UniProt Q15561)
- Procedure Text: Inhibition of CPM binding to N-terminal His6-tagged human TEAD4 (217 to 434 residues) expressed in Escherichia coli BL21-CodonPlus (DE3)-RIPL cells preincubated for 10 mins followed by CPM addition and measured after 1 hr by fluorescence assay
- Condition Details: read-out: IC50(app)
pIC50: −log10 of the molar value.
Rule: pIC50 of 5 or more gives true (1); anything lower gives false (0).

CC(C)C(Nc1ccccc1)c1oc(CO)cc(=O)c1O (configuration not stated)    false (0)
O=c1cc(CO)oc(C(Nc2ccccn2)c2ccccn2)c1O (configuration not stated)    false (0)
O=c1cc(CO)oc(C(Nc2ncccn2)c2ccccc2)c1O (configuration not stated)    false (0)
COc1c(C(Nc2ccccn2)c2ccccc2F)oc(CO)cc1=O (configuration not stated)    false (0)
O=c1cc(CO)oc(C(Nc2ccccn2)c2cccnc2)c1O (configuration not stated)    false (0)
O=c1cc(CO)oc(CNc2ccccc2)c1O    false (0)

Quick check: does `O=C(O)c1cccnc1Nc1cccc(C(F)(F)F)c1` have pIC50 greater than or equal to 5?
false (0)

Field entry: NC(=O)c1ccc(C(Nc2ccccc2)c2oc(CO)cc(=O)c2O)cc1 (configuration not stated)
true (1)

And what about the compound O=c1cc(CO)oc(C(Nc2ccccc2)c2ccccc2)c1O (configuration not stated) ?
true (1)

And then Cc1ccnc(NC(c2ccccc2)c2oc(CO)cc(=O)c2O)c1 (configuration not stated) , what is it?
true (1)
